measured.target: human P2X3 receptor (Homo sapiens (Human))
protocol.text: Intracellular calcium measurement (FLIPR, Fluo-4) of antagonist activity at human P2X3 receptors
Type: cell-based
measurement.parameters: human P2X3, FLIPR calcium assay, agonist α,β-Me-ATP; read-out: hP2X3 IC50
reported.property: IC50 (nM)
Quick reminder: number only, in nM, skip the unit.

molecule | readout.units | IC50
Cc1ccc([C@@H](C)NC(=O)c2cc(OCC3CCOCC3)cc(-c3ncc(C)s3)c2)nn1 | nM | 2
Cc1cnc(-c2cc(OC3CCN(C)CC3F)cc(C(=O)N[C@H](C)c3cnc(C(F)(F)F)nc3)c2)s1 (stereo partly drawn) | nM | 4
Cc1cnc(-c2cc(OC3CCNCC3F)cc(C(=O)N[C@H](C)c3cnc(C(F)(F)F)nc3)c2)s1 (stereo partly drawn) | nM | 7
Cc1cnc([C@@H](C)NC(=O)c2cc(OC3CCN(CC(F)(F)F)CC3)cc(-c3ncc(C)s3)c2)cn1 | nM | 11
Cc1ccc(CNC(=O)c2cc(OC3CCOCC3)cc(-c3ncc(C)s3)c2)nn1 | nM | 28

Can you look up the measured IC50 of Cc1cnc(-c2cc(OCC3CN(C)CCO3)cc(C(=O)N[C@H](C)c3cnc(C(F)(F)F)nc3)c2)s1 (stereo partly drawn) for me?
7

Can you look up the measured IC50 of `Cc1ccc([C@@H](C)NC(=O)c2cc(O[C@H]3CCOC3)cc(-c3ncc(C)s3)c2)nc1` for me?
48

* * *

measured.target: human P2X2/3 receptor (Homo sapiens (Human), UniProt P56373+Q9UBL9)
Sequence (Q9UBL9 whole entry, one chain of several): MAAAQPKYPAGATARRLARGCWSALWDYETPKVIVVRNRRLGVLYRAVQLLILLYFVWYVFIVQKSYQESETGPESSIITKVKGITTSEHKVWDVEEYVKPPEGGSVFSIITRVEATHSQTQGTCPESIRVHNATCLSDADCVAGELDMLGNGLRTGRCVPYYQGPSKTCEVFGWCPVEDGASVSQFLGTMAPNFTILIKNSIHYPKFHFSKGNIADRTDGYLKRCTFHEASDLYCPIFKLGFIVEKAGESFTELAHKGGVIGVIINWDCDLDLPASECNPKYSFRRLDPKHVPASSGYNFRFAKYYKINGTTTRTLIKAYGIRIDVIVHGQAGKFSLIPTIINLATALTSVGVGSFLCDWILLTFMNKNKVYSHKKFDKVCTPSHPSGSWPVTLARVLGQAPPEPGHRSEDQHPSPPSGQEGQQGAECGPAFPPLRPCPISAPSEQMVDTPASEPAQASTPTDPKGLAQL
protocol.text: Intracellular calcium measurement (FLIPR, Fluo-4) of antagonist activity at human P2X2/3 receptors
Assay type: cell-based
measurement.parameters: human P2X2/3, FLIPR calcium assay, agonist α,β-Me-ATP; read-out: hP2X2/3 IC50
pIC50: −log10 of the molar value.
Decide by pIC50: equal to or exceeding 7 means YES, less means NO.

molecule | label.class
Cc1ccc([C@@H](C)NC(=O)c2cc(OC3CCN(CC(F)F)CC3)cc(-c3ncc(C)s3)c2)nn1 [Example 305] | YES
Cc1cnc([C@@H](C)NC(=O)c2cc(Oc3nnc(C)s3)cc(-c3ncc(C)s3)c2)cn1 [Example 109] | NO

Dear colleague, could you confirm whether Cc1cnc(-c2cc(OCC3CN(C)CCO3)cc(C(=O)N[C@H](C)c3cnc(C(F)(F)F)nc3)c2)s1 (stereo partly shown) [Example 353] has pIC50 at or above 7?
NO

Dear colleague, could you confirm whether Cc1cnc(-c2cc(OCC3CC(F)CN3C)cc(C(=O)N[C@H](C)c3cnc(C(F)(F)F)nc3)c2)s1 (stereo partly shown) [Example 364] has pIC50 at or above 7?
NO

Dear colleague, could you confirm whether CCc1cnc(-c2cc(OC[C@H]3CCCO3)cc(C(=O)N[C@H](C)c3cnc(C(F)(F)F)nc3)c2)s1 [Example 269] has pIC50 at or above 7?
YES

Dear colleague, could you confirm whether Cc1cnc(CNC(=O)c2cc(OC[C@@H]3CCOC3)cc(-c3ncc(C)s3)c2)cn1 [Example 76] has pIC50 at or above 7?
NO

* * *

measured.target: CYP2D6 (Homo sapiens (Human), UniProt P10635)
Sequence (P10635 whole entry): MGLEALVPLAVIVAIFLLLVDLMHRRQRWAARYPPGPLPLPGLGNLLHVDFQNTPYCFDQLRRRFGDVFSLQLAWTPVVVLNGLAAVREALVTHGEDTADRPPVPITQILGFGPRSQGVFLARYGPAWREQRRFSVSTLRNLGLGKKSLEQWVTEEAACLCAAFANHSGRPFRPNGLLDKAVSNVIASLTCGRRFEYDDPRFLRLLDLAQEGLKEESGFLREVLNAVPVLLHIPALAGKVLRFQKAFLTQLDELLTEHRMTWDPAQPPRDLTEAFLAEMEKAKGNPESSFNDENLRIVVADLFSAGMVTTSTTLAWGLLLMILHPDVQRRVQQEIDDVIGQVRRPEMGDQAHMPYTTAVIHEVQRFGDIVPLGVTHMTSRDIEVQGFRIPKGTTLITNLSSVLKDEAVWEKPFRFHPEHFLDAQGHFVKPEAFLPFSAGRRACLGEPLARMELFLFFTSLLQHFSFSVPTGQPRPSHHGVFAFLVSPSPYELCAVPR
reported.property: IC50

Can you look up the measured IC50 of Cc1cnc(-c2cc(OC(C)C(C)O)cc(C(=O)N[C@H](C)c3cnc(C(F)(F)F)nc3)c2)s1 (single isomer, unassigned) [Example 163] for me?
> 20 µM

* * *

measured.target: human P2X3 receptor (Homo sapiens (Human), UniProt P56373)
Sequence (P56373 whole entry): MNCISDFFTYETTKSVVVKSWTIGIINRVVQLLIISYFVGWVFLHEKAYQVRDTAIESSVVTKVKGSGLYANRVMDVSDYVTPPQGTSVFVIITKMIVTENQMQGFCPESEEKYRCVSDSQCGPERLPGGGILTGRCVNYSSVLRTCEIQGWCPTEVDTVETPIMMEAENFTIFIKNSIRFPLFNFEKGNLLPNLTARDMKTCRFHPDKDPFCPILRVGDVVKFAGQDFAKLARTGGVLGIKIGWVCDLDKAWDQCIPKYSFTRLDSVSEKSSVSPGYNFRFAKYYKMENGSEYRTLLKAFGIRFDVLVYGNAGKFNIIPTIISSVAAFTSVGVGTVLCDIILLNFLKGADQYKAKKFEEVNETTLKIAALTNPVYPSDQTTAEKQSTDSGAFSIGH
protocol.text: Intracellular calcium measurement (FLIPR, Fluo-4) of antagonist activity at human P2X3 receptors
Format: cell-based
measurement.parameters: human P2X3, FLIPR calcium assay, agonist α,β-Me-ATP; read-out: hP2X3 IC50
pIC50 for assorted compounds
Bear in mind: pIC50 is minus log10 of a mol/L concentration; give just that figure.

The cases that follow already have their pIC50 on record.
compound | pIC50
CC(C)c1cnc(-c2cc(OC[C@@H]3CCOC3)cc(C(=O)N[C@H](C)c3cnc(C(F)(F)F)nc3)c2)s1 | 7.39
Cc1ccc([C@@H](C)NC(=O)c2cc(OC[C@H]3CCOC3)cc(-c3ncc(C)s3)c2)nn1 | 7.82
Cc1cnc(-c2cc(O[C@H]3CCN(C(C)C)C3)cc(C(=O)N[C@H](C)c3cnc(C(F)(F)F)nc3)c2)s1 | 7.80
CCc1cnc(-c2cc(OC3COC3)cc(C(=O)N[C@H](C)c3cnc(C(F)(F)F)nc3)c2)s1 | 8.05
Cc1cnc(CNC(=O)c2cc(OC[C@H]3CCOC3)cc(-c3ncc(C)s3)c2)cn1 | 6.73
Cc1ccc([C@@H](C)NC(=O)c2cc(OC3CCN(CC(F)F)CC3)cc(-c3ncc(C)s3)c2)nn1 | 8.05
Cc1cnc(-c2cc(OC[C@H]3COCCO3)cc(C(=O)N[C@H](C)c3ccc(C(F)(F)F)nn3)c2)s1 | 7.89
Cc1ccc(CNC(=O)c2cc(OCC3CCOCC3)cc(-c3ncc(C(F)(F)F)s3)c2)nn1 | 6.70

Can you look up the measured pIC50 of `Cc1cnc(-c2cc(OC[C@H]3CNCCO3)cc(C(=O)N[C@H](C)c3cnc(C(F)(F)F)nc3)c2)s1` for me?
8.05

Can you look up the measured pIC50 of `Cc1ccc([C@@H](C)NC(=O)c2cc(OC3CCOCC3)cc(-c3ncc(C)s3)c2)cn1` for me?
7.72

Can you look up the measured pIC50 of `Cc1ccc([C@@H](C)NC(=O)c2cc(O[C@@H]3CCOC3)cc(-c3ncc(C)s3)c2)nn1` for me?
7.47

Can you look up the measured pIC50 of `Cc1cnc(CNC(=O)c2cc(OC[C@@H]3CCOC3)cc(-c3ncc(C)s3)c2)cn1` for me?
6.70

Can you look up the measured pIC50 of `Cc1cnc(-c2cc(OC[C@H]3CCOC3)cc(C(=O)N[C@H](C)c3cnc(C(F)(F)F)nc3)c2)s1` for me?
8.52

Can you look up the measured pIC50 of Cc1cnc(-c2cc(OCC34CC(CO3)N(C)C4)cc(C(=O)N[C@H](C)c3cnc(C(F)(F)F)nc3)c2)s1 (stereo partly drawn) for me?
7.59

Can you look up the measured pIC50 of `COC(=O)N1CCO[C@@H](COc2cc(C(=O)N[C@H](C)c3cnc(C(F)(F)F)nc3)cc(-c3ncc(C)s3)c2)C1` for me?
7.96

* * *

measured.target: human P2X3 receptor (Homo sapiens (Human))
protocol.text: Intracellular calcium measurement (FLIPR, Fluo-4) of antagonist activity at human P2X3 receptors
Type: cell-based
measurement.parameters: human P2X3, FLIPR calcium assay, agonist α,β-Me-ATP; read-out: hP2X3 IC50
reported.property: pIC50
Bear in mind: pIC50 is minus log10 of a mol/L concentration; give just that figure.

compound | reported.property | recorded.result
Cc1cnc(-c2cc(OC[C@@H]3CCOC3)cc(C(=O)N[C@H](C)c3cnc(C(F)(F)F)nc3)c2)s1 | pIC50 | 8.40
Cc1cnc(-c2cc(OC[C@@H]3COCCO3)cc(C(=O)N[C@H](C)c3cnc(C(F)(F)F)nc3)c2)s1 | pIC50 | 7.72
Cc1cnc(-c2cc(OC3CCN(CC(F)F)CC3)cc(C(=O)N[C@@H](C)c3cnc(C(F)(F)F)nc3)c2)s1 | pIC50 | 6.82

Attention now turns to another entry.
Can you look up the measured pIC50 of Cc1cnc(-c2cc(OCC3CC(F)CN3C)cc(C(=O)N[C@H](C)c3cnc(C(F)(F)F)nc3)c2)s1 (stereo partly shown) for me?
7.80

* * *

measured.target: human P2X2/3 receptor (Homo sapiens (Human), UniProt P56373+Q9UBL9)
protocol.text: Intracellular calcium measurement (FLIPR, Fluo-4) of antagonist activity at human P2X2/3 receptors
Type: cell-based
measurement.parameters: human P2X2/3, FLIPR calcium assay, agonist α,β-Me-ATP; read-out: hP2X2/3 IC50
reported.property: pIC50
Bear in mind: pIC50 is minus log10 of a mol/L concentration; give just that figure.

Can you look up the measured pIC50 of Cc1cnc(-c2cc(OCCn3cncn3)cc(C(=O)N[C@H](C)c3ccc(C(F)(F)F)nc3)c2)s1 [Example 160] for me?
6.00

Can you look up the measured pIC50 of COC(=O)N1CCC(Oc2cc(C(=O)N[C@H](C)c3cnc(C(F)(F)F)nc3)cc(-c3ncc(C)s3)c2)CC1 [Example 226] for me?
7.23

Can you look up the measured pIC50 of Cc1ccc(CNC(=O)c2cc(O[C@@H]3CCOC3)cc(-c3ncc(C)s3)c2)nn1 [Example 17] for me?
6.00

Can you look up the measured pIC50 of Cc1cnc(-c2cc(O[C@@H]3CCN(C)C3)cc(C(=O)N[C@H](C)c3cnc(C(F)(F)F)nc3)c2)s1 [Example 141] for me?
5.66
